Source listed as ChEMBL document CHEMBL1130638.

organism: Rattus norvegicus; assay: Compound was tested for hepatoprotective activity against D-GalN-induced cytotoxicity in primary cultured rat hepatocytes at 10 uM dose; assay type: functional; conditions: Hepatocyte
VALUE TYPE: inhibition at 10 µM (%)
Write the number in % without appending the unit.

Q) I am curious: what inhibition at 10 µM value has been reported for C[C@H](CCc1ccc(O)cc1)O[C@@H]1O[C@H](CO[C@@H]2O[C@H](CO)[C@@H](O)[C@@H]2O)[C@H](O)[C@@H](O)[C@H]1O ?
A) 6.2

Q) I am curious: what inhibition at 10 µM value has been reported for OC[C@@]1(O)CO[C@@H](OC[C@H]2O[C@@H](O[C@H](CCCCc3ccc(O)cc3)CCc3ccc(O)cc3)[C@H](O)[C@H](O)[C@H]2O)[C@@H]1O ?
A) 38.4

Q) I am curious: what inhibition at 10 µM value has been reported for Oc1ccc([C@H]2Oc3cc(OC4OCC(O)C(O)C4O)cc(O)c3C[C@@H]2O)cc1O (some centres not stated) ?
A) 8.8

Q) I am curious: what inhibition at 10 µM value has been reported for COc1cc([C@@H]2c3c(cc(OC)c(O)c3OC)C[C@H](CO)[C@H]2CO[C@H]2O[C@@H](CO)[C@@H](O)[C@H](O)[C@@H]2O)cc(OC)c1O ?
A) 7.6

Q) I am curious: what inhibition at 10 µM value has been reported for COc1cc([C@H]2c3c(cc(OC)c(O)c3OC)C[C@@H](CO)[C@@H]2CO[C@H]2O[C@@H](CO)[C@@H](O)[C@H](O)[C@@H]2O)cc(OC)c1O ?
A) 24.8

Q) I am curious: what inhibition at 10 µM value has been reported for C[C@@H](CCc1ccc(O)cc1)O[C@@H]1O[C@H](CO[C@@H]2OC[C@](O)(CO)[C@H]2O)[C@H](O)[C@@H](O)[C@H]1O ?
A) 1.7

Q) I am curious: what inhibition at 10 µM value has been reported for C[C@H](CCc1ccc(O)cc1)O[C@@H]1O[C@H](CO)[C@@H](O)[C@H](O)[C@H]1O ?
A) 10.1
